Attribution: patent US8133849B2

Tested on: Ipomea hederaceae
Assay: Example B2 herbicidal action, post-emergence, pots in glasshouse, damage score 0-10
Assay type: in vivo
Conditions: application post-emergence, rate 1000 g/ha, evaluated after 13 days
Please provide measured IPOHE damage score (10=total damage to plant; 0=no damage to plant) for the entries that follow.
Answers are plain numbers.

These recorded examples may help you get a feel for the data.
CC(C)C(=O)OC1=C(c2cccc(Cl)c2Cl)S(=O)(=O)N(CC(F)F)c2nccnc21 | 6
CC(C)C(=O)OC1=C(c2c(Cl)ccc(Cl)c2Cl)S(=O)(=O)N(CC(F)F)c2nccnc21 | 10
CCN1c2nccnc2C(OC(=O)C(C)C)=C(c2cc(C(F)(F)F)ccc2Br)S1(=O)=O | 10
CC(C)C(=O)OC1=C(c2c(Br)cccc2Br)S(=O)(=O)N(CC(F)F)c2nccnc21 | 9
CCN1c2nccnc2C(OC(=O)C(C)C)=C(c2ccccc2SC(F)(F)F)S1(=O)=O | 8
CCN1c2nccnc2C(OC(=O)C(C)(C)C)=C(c2c(Cl)ccc(Cl)c2Cl)S1(=O)=O | 10

The following compounds each have a reported value; give each one's IPOHE damage score (10=total damage to plant; 0=no damage to plant).
1. C=CCN1c2nccnc2C(OC(=O)SCC)=C(c2cc(Cl)ccc2C(F)(F)F)S1(=O)=O
2. CC(C)C(=O)OC1=C(c2ccccc2C#N)S(=O)(=O)N(CC(F)F)c2nccnc21

Response line:
[3, 8]

The following compounds each have a reported value; give each one's IPOHE damage score (10=total damage to plant; 0=no damage to plant).
1. CC(C)(C)C(=O)OC1=C(c2cc(C(F)(F)F)ccc2Cl)S(=O)(=O)N(CC(F)F)c2nccnc21
2. CC(C)C(=O)OC1=C(c2ccc(Cl)cc2Cl)S(=O)(=O)N(CC(F)(F)C(F)F)c2nccnc21

Response line:
1. 10
2. 6

Prompt line: Consider the compound shown here: `CC(C)(C)C(=O)OC1=C(c2c(F)cccc2C(F)(F)F)S(=O)(=O)N(CC(F)F)c2nccnc21` What is its recorded IPOHE damage score (10=total damage to plant; 0=no damage to plant)?
Response line: 3
